Reference for the values: PubChem BioAssay (NCI)

# Tested on: MDA-MB-231 breast
# PROTOCOL_SUMMARY: NCI-60 one-dose screen, 48 h (100 = growth as untreated, 0 = no growth, -100 = all killed)
# MEASUREMENT_SETUP: 10 µM unless noted
About 83,000 compounds went through this panel and 20% of them were active in at least one assay; those are over-represented in the sample as a whole.
Define the label as Condition met when growth is strictly less than 80% and as Condition not met in all remaining cases.

[
  {
    "MOLECULE": "CC(=O)O[C@H]1C(=O)[C@@]2(C)[C@H]([C@H](OC(=O)c3ccccc3)[C@]3(O)C[C@H](OC(=O)[C@H](OC(=O)CCC(=O)OC4CCC(S/N=C(N)/N=C(\\N)N(C)C)CC4)[C@@H](NC(=O)c4ccccc4)c4ccccc4)C(C)=C1C3(C)C)[C@]1(OC(C)=O)CO[C@@H]1C[C@@H]2O (some centres not stated)",
    "QUALITATIVE_LABEL": "Condition met"
  },
  {
    "MOLECULE": "CC(=O)O[C@H]1CC[C@]2(C)[C@H]3CC=C4[C@@H]5CC(C)(C)CC[C@]5(C(=O)NCCNCCNCCN)CC[C@@]4(C)[C@]3(C)CC[C@H]2C1(C)C",
    "QUALITATIVE_LABEL": "Condition met"
  },
  {
    "MOLECULE": "Clc1ccc2c(NCCCNc3nc(-n4ccnc4)nc4ccccc34)ccnc2c1",
    "QUALITATIVE_LABEL": "Condition not met"
  },
  {
    "MOLECULE": "C(=N/Nc1ncc(-c2cc3cc(-c4ccccc4)ccc3o2)s1)/c1cccs1",
    "QUALITATIVE_LABEL": "Condition not met"
  },
  {
    "MOLECULE": "COc1cccc(-c2nc3sccn3c2-c2ccnc(NCCNS(=O)(=O)c3ccccc3)c2)c1",
    "QUALITATIVE_LABEL": "Condition met"
  },
  {
    "MOLECULE": "CSc1ccc(SC2c3ccc(C)cc3Oc3nc(N)c(C#N)c(N)c32)cc1 (configuration not stated)",
    "QUALITATIVE_LABEL": "Condition met"
  },
  {
    "MOLECULE": "CC1SC(c2ccc(N(C)C)cc2)N(NC(=O)C(O)(c2ccccc2)c2ccccc2)C1=O (configuration not stated)",
    "QUALITATIVE_LABEL": "Condition not met"
  },
  {
    "MOLECULE": "O=C(COc1ccc(-c2nc3cc(Cl)c(Cl)cc3[nH]2)cc1)N=Nc1c(O)[nH]c2ccccc12",
    "QUALITATIVE_LABEL": "Condition met"
  },
  {
    "MOLECULE": "NC(CSC(c1ccccc1)(c1ccccc1)c1ccc(Cl)cc1)C(=O)O (configuration not stated)",
    "QUALITATIVE_LABEL": "Condition met"
  },
  {
    "MOLECULE": "Nc1nc2ncc(CCNc3ccc(C(=O)O)cc3)nc2c(=O)[nH]1",
    "QUALITATIVE_LABEL": "Condition not met"
  },
  {
    "MOLECULE": "O=C1OC(c2ccccc2)C(O)=C1c1ccccc1 (configuration not stated)",
    "QUALITATIVE_LABEL": "Condition not met"
  },
  {
    "MOLECULE": "COC(=O)[C@@H]1CCCN1C(=O)[C@@H]1CCCN1C(=O)[C@H](Cc1ccccc1)NC(=S)Nc1cc(C(F)(F)F)cc(C(F)(F)F)c1",
    "QUALITATIVE_LABEL": "Condition met"
  },
  {
    "MOLECULE": "CC/C=C\\C/C=C\\C[C@H]1C/C=C2/C(=O)C=C[C@@H]2C/C=C\\CCC(=O)O1",
    "QUALITATIVE_LABEL": "Condition met"
  },
  {
    "MOLECULE": "COC(=O)c1ccc(NC(=O)c2ccc(-c3cccc([N+](=O)[O-])c3)o2)cc1",
    "QUALITATIVE_LABEL": "Condition not met"
  },
  {
    "MOLECULE": "CCN(CC)c1ccc2c(c1)Oc1nc(N)c(C#N)c(N)c1C2Sc1ccc(SC)cc1 (configuration not stated)",
    "QUALITATIVE_LABEL": "Condition met"
  },
  {
    "MOLECULE": "Cn1c(O)c(N=NC(=O)c2cc(-c3ccccc3)on2)c2ccccc21",
    "QUALITATIVE_LABEL": "Condition not met"
  },
  {
    "MOLECULE": "CSc1nc(-c2cccc(NC(=O)CCl)c2)c(C#N)c(=O)n1C",
    "QUALITATIVE_LABEL": "Condition met"
  }
]
